All figures here come from patent US10662235B2.

Assay: Thermal stability by differential scanning calorimetry
Format: physicochemical
Conditions: c-Met-binding FN3 domains, DSC in PBS
Known Thermal Stability (Tm, C.) of a selection of molecules
Give the value in C. but do not write C. after it.

Example results:
{"molecule": "P114AR7P93-G8: c-Met-binding FN3 domain, SEQ ID NO: 39 (protein, c-Met binding FN3 domain) LPAPKNLVVSRVTEDSARLSWTAPDAAFDSFWIRYFEFLGSGEAIVLTVPGSERSYDLTDLKPGTEYGVTINGVKGGRVSTPLSAIFTT", "Thermal Stability (Tm, C.)": 76.8}
{"molecule": "P114AR7P92-F6: c-Met-binding FN3 domain, SEQ ID NO: 35 (protein, c-Met binding FN3 domain) LPAPKNLVVSRVTEDSARLSWTAPDAAFDSFWIRYFEFLGSGEAIVLTVPGSERSYDLTGLKPGTEYVVNILGVKGGGLSVPLSAIFTT", "Thermal Stability (Tm, C.)": 76.8}

Turning now to a further molecule:
### Prompt Requested read-out: Thermal Stability (Tm, C.). Entry: P114AR7P92-G8: c-Met-binding FN3 domain, SEQ ID NO: 36 (protein, c-Met binding FN3 domain) LPAPKNLVVSRVTEDSARLSWTAPDAAFDSFVIRYFEFLGSGEAIVLTVPGSERSYDLTGLKPGTEYVVQILGVKGGYISIPLSAIFTT
### Response 90.9
